Target: NLRP3 inflammasome (Homo sapiens, UniProt Q96P20)
Construct: endogenous in cells
Sequence (Q96P20 whole entry): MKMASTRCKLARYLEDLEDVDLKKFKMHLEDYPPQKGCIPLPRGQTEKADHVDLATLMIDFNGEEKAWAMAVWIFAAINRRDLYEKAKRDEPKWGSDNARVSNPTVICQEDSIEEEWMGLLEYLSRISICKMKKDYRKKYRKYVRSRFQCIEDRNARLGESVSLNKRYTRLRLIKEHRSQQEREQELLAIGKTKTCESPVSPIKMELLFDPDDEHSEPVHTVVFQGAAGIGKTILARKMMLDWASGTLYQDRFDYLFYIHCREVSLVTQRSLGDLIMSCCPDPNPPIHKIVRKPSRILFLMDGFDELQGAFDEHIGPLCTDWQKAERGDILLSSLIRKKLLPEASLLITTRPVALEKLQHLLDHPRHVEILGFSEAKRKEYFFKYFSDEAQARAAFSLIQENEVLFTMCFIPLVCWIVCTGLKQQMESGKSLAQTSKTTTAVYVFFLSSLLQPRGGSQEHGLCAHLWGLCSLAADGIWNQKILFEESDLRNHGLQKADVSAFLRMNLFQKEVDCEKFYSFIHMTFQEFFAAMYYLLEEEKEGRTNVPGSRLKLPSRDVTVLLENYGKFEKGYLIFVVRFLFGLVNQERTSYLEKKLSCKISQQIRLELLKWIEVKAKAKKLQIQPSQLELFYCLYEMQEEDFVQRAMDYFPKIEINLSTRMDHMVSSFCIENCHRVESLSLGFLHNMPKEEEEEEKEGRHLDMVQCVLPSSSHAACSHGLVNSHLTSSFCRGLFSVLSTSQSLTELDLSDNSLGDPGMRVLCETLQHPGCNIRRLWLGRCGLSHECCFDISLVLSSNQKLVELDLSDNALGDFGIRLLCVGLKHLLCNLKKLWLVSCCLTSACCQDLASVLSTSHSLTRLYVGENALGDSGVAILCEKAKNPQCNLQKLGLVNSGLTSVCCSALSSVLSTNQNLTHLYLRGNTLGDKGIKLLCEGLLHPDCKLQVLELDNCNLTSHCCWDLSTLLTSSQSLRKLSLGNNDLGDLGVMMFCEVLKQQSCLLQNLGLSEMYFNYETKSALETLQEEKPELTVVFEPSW
Assay: IL-1β secretion assay (NLRP3 IC50) in LPS-primed, nigericin-activated THP-1 cells, HTRF
Settings: monocytic THP-1 cells; LPS 10 ng/mL 3 h priming, then compound + nigericin 10 μM 2 h; relative IC50, 10 concentrations, geometric mean
pIC50: −log10 of the molar value.
property_measured: pIC50

>  <molecule>
Cc1cc(C)c(-c2ccc(N3C[C@@H](O)CO3)nn2)c(O)c1 [Example 113]

>  <observed_measurement>
6.07

$$$$
>  <molecule>
Cc1cc(Cl)cc(O)c1-c1ccc(N2CCO[C@H]3CCNC[C@H]32)nn1 [Example 308]

>  <observed_measurement>
8.05

$$$$
>  <molecule>
Cc1cc(C)c(-c2ccc(N3CC[C@@H]4CCN(C)C[C@@H]43)nn2)c(O)c1 (racemic) [Example 342]

>  <observed_measurement>
8.70

$$$$
>  <molecule>
Cc1cc(C(F)(F)F)cc(O)c1-c1ccc(N2CC[C@H]3CN(C)C[C@H]32)nn1 (racemic) [Example 265]

>  <observed_measurement>
6.50

$$$$

====

Target: NLRP3 inflammasome (Homo sapiens)
Construct: endogenous in cells
Assay: IL-1β secretion assay (NLRP3 IC50) in LPS-primed, nigericin-activated THP-1 cells, HTRF
Details: monocytic THP-1 cells; LPS 10 ng/mL 3 h priming, then compound + nigericin 10 μM 2 h; relative IC50, 10 concentrations, geometric mean
pIC50: −log10 of the molar value.
pIC50 below 7 gives no; pIC50 at or above it gives yes.

>  <compound>
Cc1cc(N2CCO[C@H](CO)C2)nnc1-c1ccc(C(F)(F)F)cc1O

>  <classification>
yes

$$$$
>  <compound>
Cc1cc(C)c(-c2ccc(N3CCC(C#N)CC3)nn2)c(O)c1

>  <classification>
no

$$$$
>  <compound>
CC(=O)N1C[C@@H]2[C@@H](C1)OCCN2c1ccc(-c2c(C)cc(C(F)(F)F)cc2O)nn1 (racemic)

>  <classification>
no

$$$$
>  <compound>
Cc1ccc(-c2nnc(N3CCO[C@H](CO)C3)c(C)c2C)c(O)c1

>  <classification>
no

$$$$
>  <compound>
Cc1cc(C(F)(F)F)cc(O)c1-c1ccc(N2CC[C@@H]3CCN(C)C[C@H]32)nn1 (racemic)

>  <classification>
no

$$$$

====

Target: NLRP3 inflammasome (Homo sapiens)
Construct: endogenous in cells
Test: IL-1β secretion assay (NLRP3 IC50) in LPS-primed, nigericin-activated THP-1 cells, HTRF
Details: monocytic THP-1 cells; LPS 10 ng/mL 3 h priming, then compound + nigericin 10 μM 2 h; relative IC50, 10 concentrations, geometric mean
pIC50: −log10 of the molar value.
pIC50 below 7 gives N; pIC50 at or above it gives Y.

>  <molecule>
Cc1cc(C(F)(F)F)cc(O)c1-c1ccc(N2CC[C@H]3CCN(C)C[C@H]32)nn1 [Example 391]

>  <classification>
Y

$$$$
>  <molecule>
CN(C)C[C@@H]1CCCN(c2ccc(-c3c(O)cc(Cl)cc3Cl)nn2)C1 [Example 51]

>  <classification>
N

$$$$
>  <molecule>
Cc1cc(C)c(-c2ccc(N3CCNC4(CCOC4)C3)nn2)c(O)c1 (stereo not shown) [Example 196]

>  <classification>
N

$$$$
>  <molecule>
Cc1cc(Cl)cc(O)c1-c1ccc(N2CCO[C@@H]3CCNC[C@@H]32)nn1 [Example 309]

>  <classification>
N

$$$$
>  <molecule>
CC(=O)NC[C@@H]1CN(c2ccc(-c3c(C)cc(Cl)cc3O)nn2)CCO1 [Example 267]

>  <classification>
N

$$$$
>  <molecule>
Cc1cc(C(F)(F)F)cc(O)c1-c1ccc(N2CCO[C@@H](CNC(=O)C(C)C)C2)nn1 [Example 276]

>  <classification>
N

$$$$
>  <molecule>
Cc1cc(C)c(-c2ccc(N3CCC[C@H]4CCN(C)C[C@H]43)nn2)c(O)c1 [Example 518]

>  <classification>
N

$$$$
>  <molecule>
CNC(=O)[C@H]1CN(c2ccc(-c3c(C)cc(C)cc3O)nn2)CCO1 [Example 182]

>  <classification>
N

$$$$
>  <molecule>
Cc1cc(C(F)(F)F)cc(O)c1-c1ccc(N2C[C@H](CO)O[C@H](C)C2)nn1 [Example 302]

>  <classification>
Y

$$$$
>  <molecule>
CCc1cc(Cl)cc(O)c1-c1ccc(N2CC[C@H]3CCN(C)C[C@H]32)nn1 (single isomer, unassigned) [Example 493]

>  <classification>
N

$$$$
>  <molecule>
Cc1cc(N2CC[C@@H]3CCN(C)C[C@@H]32)nnc1-c1ccc(C(F)(F)F)cc1O (single isomer, unassigned) [Example 366]

>  <classification>
Y

$$$$
>  <molecule>
CCN1CC[C@@H]2CCN(c3ccc(-c4c(O)cccc4C(F)(F)F)nn3)[C@@H]2C1 (single isomer, unassigned) [Example 473]

>  <classification>
Y

$$$$
>  <molecule>
OC[C@@H]1CN(c2ccc(-c3c(O)cccc3F)nn2)CCO1 [Example 44]

>  <classification>
N

$$$$
>  <molecule>
Cc1cc(N2CC[C@@H]3CCN(C)C[C@@H]32)nnc1-c1ccc(C(F)(F)F)cc1O (racemic) [Example 340]

>  <classification>
Y

$$$$
